- Tested on: PXR:RXRa (NR concentration 270 nM, RXRa partner concentration 90 nM)
- MEASUREMENT_DESCRIPTION: PBM binding z-score (relative to random genomic background probes); higher = stronger binding; sequences stand for … in GC…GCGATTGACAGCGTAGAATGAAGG
Where PBM binding z-score equals or exceeds 1, the correct label is class 1; where it does not, the label is class 0.

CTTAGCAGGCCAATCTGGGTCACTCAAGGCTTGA; class 0

### Prompt Quick check: does "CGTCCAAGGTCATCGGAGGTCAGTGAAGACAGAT" have PBM binding z-score greater than or equal to 1?
### Response class 1

### Prompt Quick check: does "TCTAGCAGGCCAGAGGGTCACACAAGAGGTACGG" have PBM binding z-score greater than or equal to 1?
### Response class 1

### Prompt Quick check: does "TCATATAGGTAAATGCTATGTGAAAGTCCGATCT" have PBM binding z-score greater than or equal to 1?
### Response class 0

### Prompt Quick check: does "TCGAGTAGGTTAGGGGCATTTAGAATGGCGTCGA" have PBM binding z-score greater than or equal to 1?
### Response class 0

### Prompt Quick check: does "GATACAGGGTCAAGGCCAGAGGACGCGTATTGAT" have PBM binding z-score greater than or equal to 1?
### Response class 1

### Prompt Quick check: does "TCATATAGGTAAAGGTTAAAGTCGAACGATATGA" have PBM binding z-score greater than or equal to 1?
### Response class 1

### Prompt Quick check: does "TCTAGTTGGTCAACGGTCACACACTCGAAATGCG" have PBM binding z-score greater than or equal to 1?
### Response class 0

### Prompt Quick check: does "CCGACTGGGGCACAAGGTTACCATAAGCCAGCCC" have PBM binding z-score greater than or equal to 1?
### Response class 0

### Prompt Quick check: does "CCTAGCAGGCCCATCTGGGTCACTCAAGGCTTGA" have PBM binding z-score greater than or equal to 1?
### Response class 0

### Prompt Quick check: does "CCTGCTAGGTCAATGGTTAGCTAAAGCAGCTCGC" have PBM binding z-score greater than or equal to 1?
### Response class 0

### Prompt Quick check: does "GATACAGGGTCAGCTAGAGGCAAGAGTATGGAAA" have PBM binding z-score greater than or equal to 1?
### Response class 1
